Target: Hes1 dimer formation (Hes1-Hes1 interaction) (Rattus norvegicus)
Construct: Glutathione-S-transferase (GST) fused rat Hes1(3–281) protein was expressed in Escherichia coli; GST (N, cleaved yes); GST (N); made in house; host or cells: Escherichia coli JM109 (pGEX-ratHes1 3-281)
Experiment: Hes1-Hes1 interaction fluorescent plate assay (Hes1 dimer formation inhibition)
Assay type: binding
Settings: Cy3-labeled Hes1 / immobilized Hes1, compound 1 h at RT; read-out: Hes1 dimer formation inhibitory activity IC50
pIC50: −log10 of the molar value.
ENDPOINT_LABEL: pIC50

>>> result_value("O=c1c(O)c(-c2ccc(O)cc2O)oc2cc(O)cc(O)c12")
4.39
>>> result_value("O=c1c(O)c(-c2ccc(O)c(O)c2)oc2cc(O)cc(O)c12")
4.35
>>> result_value("O=C(O)c1ccc(O)c(O)c1")
4.62
>>> result_value("O=c1c(O[C@@H]2O[C@@H](CO)[C@H](O)[C@H]2O)c(-c2ccc(O)c(O)c2)oc2cc(O)cc(O)c12")
4.58

====

Target: Hes1 dimer formation (Hes1-Hes1 interaction) (Rattus norvegicus, UniProt Q04666)
Construct: Glutathione-S-transferase (GST) fused rat Hes1(3–281) protein was expressed in Escherichia coli; GST (N, cleaved yes); GST (N); made in house; host or cells: Escherichia coli JM109 (pGEX-ratHes1 3-281)
Sequence (Q04666 3-281): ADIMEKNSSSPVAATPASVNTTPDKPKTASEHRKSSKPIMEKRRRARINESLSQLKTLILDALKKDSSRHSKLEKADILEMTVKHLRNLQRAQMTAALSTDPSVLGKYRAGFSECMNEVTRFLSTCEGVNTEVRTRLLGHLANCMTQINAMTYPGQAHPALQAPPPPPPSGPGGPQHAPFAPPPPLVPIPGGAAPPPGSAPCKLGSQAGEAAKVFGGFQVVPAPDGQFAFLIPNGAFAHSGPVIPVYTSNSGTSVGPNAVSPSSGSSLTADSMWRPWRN
Experiment: Hes1-Hes1 interaction fluorescent plate assay (Hes1 dimer formation inhibition)
Type: binding
Conditions: 24 h; 5 μM compound; 0 μM = 100; read-out: Hes1 dimer formation rate (%)
ENDPOINT_LABEL: remaining activity at 5 µM (%)

>>> result_value("COC(=O)c1cc(O)c(O)c(O)c1 [Compound 3, methyl gallate]")
68.4
>>> result_value("O=C(O)c1cc(O)c(O)c(O)c1 [Compound 8, gallic acid]")
53.9
>>> result_value("O=c1c(O)c(-c2ccc(O)cc2O)oc2cc(O)cc(O)c12 [Compound 1, morin]")
89.7
>>> result_value("O=c1c(O[C@@H]2O[C@@H](CO)[C@H](O)[C@H]2O)c(-c2ccc(O)c(O)c2)oc2cc(O)cc(O)c12 [Compound 7, avicularin]")
74.6
>>> result_value("CC1OC(Oc2cc3c(=O)oc4c(O)c(O)cc5c(=O)oc(c2O)c3c45)C(O)C(O)C1OC(=O)c1cc(O)c(O)c(O)c1 (centres unmarked) [Compound 11]")
27.6

====

Reported IC50 values for the following molecules.
Biological target: Hes1 dimer formation (Hes1-Hes1 interaction) (Rattus norvegicus)
Construct: Glutathione-S-transferase (GST) fused rat Hes1(3–281) protein was expressed in Escherichia coli; GST (N, cleaved yes); GST (N); made in house; host or cells: Escherichia coli JM109 (pGEX-ratHes1 3-281)
Experiment: Hes1-Hes1 interaction fluorescent plate assay (Hes1 dimer formation inhibition)
Assay type: binding
Settings: Cy3-labeled Hes1 / immobilized Hes1, compound 1 h at RT; read-out: Hes1 dimer formation inhibitory activity IC50
ENDPOINT_LABEL: IC50 (µM)

>>> result_value("O=C(O)c1ccc(O)cc1 [Compound 10, 4-hydroxybenzoic acid]")
51.2
>>> result_value("COC(=O)c1cc(O)c(O)c(O)c1 [Compound 3, methyl gallate]")
12.7
>>> result_value("O=c1c(O[C@@H]2O[C@H](CO)[C@@H](O)[C@H](O)[C@H]2O)c(-c2ccc(O)c(O)c2)oc2cc(O)cc(O)c12")
35.7
>>> result_value("CC1OC(Oc2cc3c(=O)oc4c(O)c(O)cc5c(=O)oc(c2O)c3c45)C(O)C(O)C1OC(=O)c1cc(O)c(O)c(O)c1 (stereo not shown)")
2.53
